Molecular target: T1, mouse IL-2Rβ (mouse) (UniProt P16297)
T1 sequence (looked up): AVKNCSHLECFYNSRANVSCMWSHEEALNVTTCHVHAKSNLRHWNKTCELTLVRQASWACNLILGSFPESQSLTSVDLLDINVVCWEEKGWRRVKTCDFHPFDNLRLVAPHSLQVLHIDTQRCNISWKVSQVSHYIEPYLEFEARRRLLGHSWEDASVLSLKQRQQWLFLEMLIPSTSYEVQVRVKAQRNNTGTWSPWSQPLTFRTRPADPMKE
Test: P.E. ELISA, coated protein
Assay endpoint: P.E. binding ELISA OD (OD450 nm)

FJ1427_P035MP02B04 (VHH) VHH: EVQLVESGGGLVQAGGSLGLSCAASGGTFSSYAMGWFRQAPGKEREFVAATTRGGGRTMYAVSTEGRFTCSRDNAKNTVYLQMNSLKPKDTAIYYCAAMTSYYSGTYYPDSSDFDIWGQGTQVTVSS: 0.047
FJ1427_P035MP02E04 (VHH) VHH: EVQLVESGGGLVQAGGSLRLSCAASGGTFSSYAMGWFRQAPGKEREFVAATTRGGGRTMYAVSTEGRFTCSRDNAKNTVYLQMNSLKPKDTAIYYCAAMTSYYSGTYYPDSSDFDIWGQGTQVTVSS: 0.048
FJ1427_P035MP02C09 (VHH) VHH: QVQLQESGGGLVQAGGSLRLSCVASGSVSSINGMAWYRQGADNQRVLVAAISRVGNTAYGDSVKGRFTISRQNARNTVYLQMNSLKPEDTAVYYCNADSWGGDDYWGQGTQVTVSS: 0.047
FJ1427_P035MP02G10 (VHH) VHH: QVQLVESGGGLVQAGGSLRLSCAASGRTFSTTEMGWFRQAPGKEREFVAAITWTGRGTMYAESVEGRFTISRENAKNMVYLQMNSLKPEDTAIYYCAAARRGRAAVRSEGGYDFWGQGTQVTVSS: 0.048
FJ1427_P035MP03F12 (VHH) VHH: EVQLVESGGGLVQAGGSLRLSCAASGSIFSINAMAWFRQVPGMERELVAAISRDGGASVYRDSVKGRFTISRDNSKNTVYLQMNTLKPEDTAIYVCAATRAIGWTARWITTDFDFWGQGTQVTVSS: 0.048
FJ1427_P035MP02D04 (VHH) VHH: QVQLVESGGGLVQTGGSLRLSCAVSGSRFISDVMGWYRQVPGKQRELVADMADGGSAKYADSVKGRFSILRDSVKNTVYLQMSSLKPEDTGIYYCKAGLWIAGRHSDYWGQGTQVTVSS: 0.048
FJ1427_P035MP02B01 (VHH) VHH: QVQLVESGGGLVQTGGSLRLSCAASGSQFINDVMGWYRQVPGKQRELVADMDDTGSTKYADSVKGRFTILRDSVKNTAYLQMSNLKPEDTGVYYCKAGLWIKGRHFDYWGQGTQVTVSS: 0.048
FJ1427 P035MP02G05 (VHH) VHH: EVQLVESGGGLVQTGGSLRLSCAASGSQFINDVTGWYRQVPGKQRELVADMDDTGSTKYADSVKGRFTILRDSVKNTAYLQMSNLKPEDTGVYYCKAGLWIKGRHSDYWGQGTQVTVSS: 0.048
